# System: SNB-75 CNS
# TEST: NCI tumour cell line growth inhibition, 48 h
EXPERIMENTAL ENDPOINT: GI50

Look over these answered cases.
• CCC(C(=O)[O-])C(=O)[O-].CCC(C(=O)[O-])C(=O)[O-].N.N.NCCCCCN.[Pt+4].[Pt+4] = > 100 µM
• O=C1c2ccccc2S(=O)(=O)N1CSC(=S)N1CCCC1 = > 48 µM
• Cc1ccc(S(=O)(=O)Oc2ccc3c4c(c(=O)oc3c2)CCCCC4)cc1 = 71.4 µM

Continue with the next molecule.
Lab entry: SNB-75 CNS assay, molecule O=C([O-])c1ccc2c(c1)-c1nc-2nc2[n-]c(nc3nc(nc4[n-]c(n1)c1ccc(C(=O)[O-])cc41)-c1cc(C(=O)[O-])ccc1-3)c1ccc(C(=O)[O-])cc21.[Fe+2] , GI50 = 31.8 µM
